Values compiled from patent US3952017A.

experiment: acute toxicity in mice (24-hour values); conditions: mouse, in vivo, po; mice, p.o., 24-hour values; read-out: LD50 p.o.
readout-type: LD50 at 24 h

Kindly note the recorded LD50 at 24 h for Cc1cccc2c1CCc1ccccc1C2CCCN(C)C.Cl (stereo not shown) , which is 300 to 600 mg/kg
